Source: paper PMC5823845

Assay protocol: Intrinsic clearance in liver microsomes
Assay type: in vitro ADME
Test settings: liver microsomes; mouse microsomes, 37 °C, NADPH, 45 min; mean of 5
Measurement type: log10(microsomal CLint) (log10 of the value in µL/min/mg)
The figures below represent log10 of microsomal CLint, where microsomal CLint is stated in µL/min/mg.

Example cases with answers are listed next.
1) COc1c(Cl)cc(C(=O)Nc2ccc(C(=O)O)cc2)cc1OC(C)C	0.95
2) CC(C)(C)Oc1c(Cl)cc(C(=O)Nc2ccc(C(=O)O)cc2)cc1Cl	1.96
3) CC(C)Oc1cc(C(=O)Nc2ccc(C(=O)O)cc2)cc(Cl)c1OC(C)C	1.49
4) CCOc1c(Cl)cc(C(=O)Nc2ccc(C(=O)O)c(C)c2)cc1OC	1.26
5) COc1c(Cl)cc(C(=O)Nc2ccc(C(=O)O)c(F)c2)cc1OC(C)C	1.04

query: Name the recorded log10(microsomal CLint) for `CCOc1cc(C(=O)Nc2ccc(C(=O)O)c(C)c2)cc(Cl)c1OC(C)C` .
result: 1.41

query: Look up log10(microsomal CLint) for this compound: `CCOc1c(Cl)cc(C(=O)Nc2ccc(C(=O)O)c(C)c2)cc1OCC1CC1`
result: 1.63

query: Which measured log10(microsomal CLint) value corresponds to `Cc1cc(NC(=O)c2cc(Cl)c(OC(C)C)c(OC(C)C)c2)ccc1C(=O)O` ?
result: 1.42

query: May I ask what log10(microsomal CLint) has been recorded for `O=C(O)c1ccc(NC(=O)c2cc(Cl)c(OC3CCCC3)c(Cl)c2)cc1` ?
result: 1.92

query: May I ask what log10(microsomal CLint) has been recorded for `CCOc1c(Cl)cc(C(=O)Nc2ccc(C(=O)O)c(C)c2)cc1OC(C)C` ?
result: 1.58

query: Query (compound): `CC(C)Oc1cc(C(=O)Nc2ccc(C(=O)O)c(F)c2)cc(Cl)c1OC(C)C` ; field requested: log10(microsomal CLint)
result: 1.27

query: Name the recorded log10(microsomal CLint) for `CCOc1c(Cl)cc(C(=O)Nc2ccc(C(=O)O)c(F)c2)cc1OC(C)C` .
result: 1.25

query: Fill in the blank: the reported log10(microsomal CLint) of `COc1c(Cl)cc(C(=O)Nc2ccc(C(=O)O)c(C)c2)cc1OC(C)C` is ____.
result: 1.03

* * *

Assay protocol: Intrinsic clearance in liver microsomes
Type: in vitro ADME
Test settings: liver microsomes; human microsomes, 37 °C, NADPH, 45 min; mean of 5
Measurement type: microsomal CLint (µL/min/mg)
Report the figure in µL/min/mg without appending any unit label.

Worked examples, 5 compounds total:
1. CC1(C)CCC(C)(C)c2cc(C(=O)Nc3ccc(C(=O)O)cc3)ccc21	15.6
2. COc1c(Cl)cc(C(=O)Nc2ccc(C(=O)O)c(F)c2)cc1OC(C)C	0.3
3. CC(C)(C)Oc1c(Cl)cc(C(=O)Nc2ccc(C(=O)O)cc2)cc1Cl	16
4. Cc1cc(NC(=O)c2cc(Cl)c(OC(C)C)c(OC(C)C)c2)ccc1C(=O)O	15
5. CCOc1c(Cl)cc(C(=O)Nc2ccc(C(=O)O)cc2)cc1Cl	18

query: Which microsomal CLint value is on record for `COc1c(Cl)cc(C(=O)Nc2ccc(C(=O)O)cc2)cc1OC(C)C` ?
result: 12
